Biological target: Nicotinic Acetylcholine α4β2 Receptor (UniProt P09483+P12390)
Assay: Binding assay for human or rat nicotinic acetylcholine α4β2 receptor ([3H]Cytisine displacement)
Conditions: [3H]Cytisine 2.5 nM; rat brain frontal cortex or recombinant human receptor in CHO cells (not specified which)
Experimental: Binding Assay for Human or Rat Nicotinic Acetylcholine α4β2 Receptor […] Increasing concentrations of test compounds or standard were incubated with membrane receptors and radioligand in 120 mM NaCl, 2.5 mM KCl, 1 mM CaCl2, 1 mM MgCl2 and 50 mM TRIS-HCl (pH 7.4) for 60 minutes at room temperature. […] Radioactivity trapped onto the filters was determined and compared to the control values in order to ascertain any interactions of the test compound(s) with either cloned human or rat receptor binding site. […]
Where a name gives a salt, the structure may show the parent alone.
experimental.endpoint: Ki (nM)
Your answer should be a plain number; it is taken to be in nM.

Req: May I ask what Ki has been recorded for NCC1CC2CC2N1c1cccnc1 (stereo not shown) [Example 18, fumarate] ?
Resp: 6.4

The reported numbers originate from patent US8653071B2.
